# ASSAYED_SYSTEM: c-Met kinase (recombinant c-Met) (Homo sapiens)
# Construct: 0.27 nM recombinant c-Met
# Sequence (P08581 25-1390): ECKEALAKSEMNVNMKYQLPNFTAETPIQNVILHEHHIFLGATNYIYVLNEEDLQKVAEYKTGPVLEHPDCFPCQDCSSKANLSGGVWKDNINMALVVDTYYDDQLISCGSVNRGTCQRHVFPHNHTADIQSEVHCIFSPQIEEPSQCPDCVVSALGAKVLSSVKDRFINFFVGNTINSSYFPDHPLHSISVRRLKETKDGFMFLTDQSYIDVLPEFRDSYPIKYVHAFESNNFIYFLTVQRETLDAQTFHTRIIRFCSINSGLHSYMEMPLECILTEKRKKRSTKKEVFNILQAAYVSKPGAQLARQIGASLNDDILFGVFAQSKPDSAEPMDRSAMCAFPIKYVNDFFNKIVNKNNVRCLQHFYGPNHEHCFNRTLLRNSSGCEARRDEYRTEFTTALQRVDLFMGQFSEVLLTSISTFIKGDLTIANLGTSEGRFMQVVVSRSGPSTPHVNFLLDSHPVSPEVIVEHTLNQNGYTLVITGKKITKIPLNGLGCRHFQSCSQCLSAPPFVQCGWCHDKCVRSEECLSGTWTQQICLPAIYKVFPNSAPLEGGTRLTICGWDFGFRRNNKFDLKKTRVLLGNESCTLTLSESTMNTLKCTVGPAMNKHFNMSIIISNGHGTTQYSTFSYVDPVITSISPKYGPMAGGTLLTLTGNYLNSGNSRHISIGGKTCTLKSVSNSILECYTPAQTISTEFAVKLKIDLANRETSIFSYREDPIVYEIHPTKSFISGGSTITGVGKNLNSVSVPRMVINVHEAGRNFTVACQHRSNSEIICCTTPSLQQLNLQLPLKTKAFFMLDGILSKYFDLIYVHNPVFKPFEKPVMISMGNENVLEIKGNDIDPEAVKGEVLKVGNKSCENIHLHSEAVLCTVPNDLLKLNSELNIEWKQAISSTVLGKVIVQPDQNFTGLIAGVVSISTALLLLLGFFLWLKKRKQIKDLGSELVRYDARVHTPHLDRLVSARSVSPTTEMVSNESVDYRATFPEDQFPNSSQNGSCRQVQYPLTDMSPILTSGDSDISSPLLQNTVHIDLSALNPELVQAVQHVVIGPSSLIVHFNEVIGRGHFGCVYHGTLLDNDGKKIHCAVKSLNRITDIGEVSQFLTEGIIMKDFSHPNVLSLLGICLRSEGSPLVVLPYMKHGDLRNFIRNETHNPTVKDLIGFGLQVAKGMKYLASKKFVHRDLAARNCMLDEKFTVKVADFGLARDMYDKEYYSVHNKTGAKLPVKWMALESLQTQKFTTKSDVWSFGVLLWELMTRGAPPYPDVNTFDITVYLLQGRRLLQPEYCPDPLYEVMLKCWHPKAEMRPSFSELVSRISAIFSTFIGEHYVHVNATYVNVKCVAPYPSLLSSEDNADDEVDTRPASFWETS
# METHOD_DESCRIPTION: In vitro kinase assay I (homogeneous time-resolved fluorescence tyrosine kinase assay)
PROPERTY: IC50

| COMPOUND | ASSAYED_SYSTEM | PROPERTY | OBSERVED_VALUE |
| --- | --- | --- | --- |
| O=c1ccn(-c2cc(F)cc(F)c2)nc1Cc1cccc(-c2ncc(OCC3CCOCC3)cn2)c1 | c-Met kinase (recombinant c-Met) (Homo sapiens) | IC50 | < 100 nM |
| CCOc1ccnc(-c2cccc(C(C)c3nn(-c4cnn(C)c4)ccc3=O)c2)n1 (racemic) | c-Met kinase (recombinant c-Met) (Homo sapiens) | IC50 | < 100 nM |
| Cn1cc(-n2ccc(=O)c(Cc3cccc(NC(=O)OCCn4ccnc4)c3)n2)cn1 | c-Met kinase (recombinant c-Met) (Homo sapiens) | IC50 | < 100 nM |
| CC(c1cccc(-c2ncc(-n3cnnc3)cn2)c1)c1nn(-c2cnn(C)c2)ccc1=O (single isomer, unassigned) | c-Met kinase (recombinant c-Met) (Homo sapiens) | IC50 | 100 to 1000 nM |
| CCn1cc(-n2ccc(=O)c(Cc3cccc(-c4ncc(-c5cnn(C)c5)cn4)c3)n2)cn1 | c-Met kinase (recombinant c-Met) (Homo sapiens) | IC50 | < 100 nM |

What measured IC50 is associated with "CCCCOC(=O)Nc1cccc(Cc2nn(-c3cnn(C)c3)ccc2=O)c1" on c-Met kinase (recombinant c-Met) (Homo sapiens)?
< 100 nM

What measured IC50 is associated with "Cn1cc(-n2ccc(=O)c(Cc3cccc(-c4ncc(-n5cnnc5)cn4)c3)n2)cn1" on c-Met kinase (recombinant c-Met) (Homo sapiens)?
< 100 nM

What measured IC50 is associated with "COCCCc1cnc(-c2cccc(Cc3nn(-c4cnn(C)c4)ccc3=O)c2)nc1" on c-Met kinase (recombinant c-Met) (Homo sapiens)?
< 100 nM

What measured IC50 is associated with CC(c1cccc(-c2ncc(C3CC3)cn2)c1)c1nn(-c2cnn(C)c2)ccc1=O (single isomer, unassigned) [Example 405] on c-Met kinase (recombinant c-Met) (Homo sapiens)?
< 100 nM

What measured IC50 is associated with "CCOc1cnc(-c2cc(F)cc(Cc3nn(-c4cnn(C)c4)ccc3=O)c2)nc1" on c-Met kinase (recombinant c-Met) (Homo sapiens)?
< 100 nM

What measured IC50 is associated with "CCCn1cc(-n2ccc(=O)c(Cc3cccc(-c4ncc(OC)cn4)c3)n2)cn1" on c-Met kinase (recombinant c-Met) (Homo sapiens)?
< 100 nM

What measured IC50 is associated with "Cn1cc(-n2ccc(=O)c(Cc3cccc(NC(=O)OCC(F)F)c3)n2)cn1" on c-Met kinase (recombinant c-Met) (Homo sapiens)?
< 100 nM

What measured IC50 is associated with CC(c1cccc(-c2ncc(-c3cnn(C)c3)cn2)c1)c1nn(-c2cnn(C)c2)ccc1=O (single isomer, unassigned) [Example 233] on c-Met kinase (recombinant c-Met) (Homo sapiens)?
< 100 nM

What measured IC50 is associated with "CCNC(=O)Nc1cccc(Cc2nn(-c3ccccc3)ccc2=O)c1" on c-Met kinase (recombinant c-Met) (Homo sapiens)?
1000 to 3000 nM

What measured IC50 is associated with "Cn1cc(-n2ccc(=O)c(Cc3cccc(NC(=O)CCc4ccccc4)c3)n2)cn1" on c-Met kinase (recombinant c-Met) (Homo sapiens)?
< 100 nM

What measured IC50 is associated with "Cn1cc(-n2ccc(=O)c(Cc3cccc(NC(=O)OC[C@@H]4CCCN4)c3)n2)cn1" on c-Met kinase (recombinant c-Met) (Homo sapiens)?
100 to 1000 nM

* * *

List of pIC50 values.
# ASSAYED_SYSTEM: c-Met kinase (recombinant c-Met) (Homo sapiens)
# Construct: 0.27 nM recombinant c-Met
# METHOD_DESCRIPTION: In vitro kinase assay I (homogeneous time-resolved fluorescence tyrosine kinase assay)
pIC50: −log10 of the molar value.

Some entries whose results are on file:
| COMPOUND | OBSERVED_VALUE |
| --- | --- |
| COc1cnc(-c2cccc(C(C)c3nn(-c4cnn(C)c4)ccc3=O)c2)nc1 (single isomer, unassigned) [Example 203] | 6.00 to 7.00 |
| CCCn1cnc(-c2cccc(Cc3nn(-c4cc(F)cc(C#N)c4)ccc3=O)c2)n1 | > 7.00 |
| Cn1cc(-n2ccc(=O)c(Cc3cccc(-c4ncc(-c5cncc(F)c5)cn4)c3)n2)cn1 | > 7.00 |
| CCn1cnc(-c2cccc(Cc3nn(-c4cnn(CCOCc5ccccc5)c4)ccc3=O)c2)n1 | 6.00 to 7.00 |
| CC(C)COC(=O)Nc1cccc(Cc2nn(-c3cnn(CCCC(=O)N4CCOCC4)c3)ccc2=O)c1 | > 7.00 |
| Cn1cc(-n2ccc(=O)c(Cc3cccc(NC(=O)OCC4(F)CCNCC4)c3)n2)cn1 | > 7.00 |
| Cn1cc(-n2ccc(=O)c(Cc3cccc(NC(=O)OCCCCO)c3)n2)cn1 | > 7.00 |
| Cn1cc(-n2ccc(=O)c(Cc3cccc(-c4ncc(CO)cn4)c3)n2)cn1 | > 7.00 |

Requested field: pIC50. Item: "CCCOc1cnc2ccc(Cc3nn(-c4cnn(C)c4)ccc3=O)cc2c1"
> 7.00

Requested field: pIC50. Item: "COCCOc1cnc(-c2cccc(Cc3nn(-c4cnn(C)c4)cc(C)c3=O)c2)nc1"
> 7.00

Requested field: pIC50. Item: "COCCc1nc(-c2cccc(Cc3nn(-c4cnn(C)c4)ccc3=O)c2)no1"
6.00 to 7.00

Requested field: pIC50. Item: CC(c1cccc(-c2ncc(Br)cn2)c1)c1nn(-c2cnn(C)c2)ccc1=O (single isomer, unassigned) [Example 242]
> 7.00

Requested field: pIC50. Item: "CCOC(=O)Nc1cccc(Cc2nn(-c3ccc(F)c(F)c3)ccc2=O)c1"
> 7.00

Requested field: pIC50. Item: CCn1cc(-n2ccc(=O)c(C(C)c3cccc(-c4ncn(CC)n4)c3)n2)cn1 (single isomer, unassigned) [Example 686]
6.00 to 7.00

Requested field: pIC50. Item: "Cn1cc(-n2ccc(=O)c(Cc3cccc(-c4ncc(N5CCC(C(N)=O)CC5)cn4)c3)n2)cn1"
> 7.00

Requested field: pIC50. Item: "COCCOC(=O)Nc1cccc(Cc2nn(-c3ccc(C#N)cc3)ccc2=O)c1"
> 7.00

Requested field: pIC50. Item: Cn1cc(-n2ccc(=O)c(Cc3cccc(-c4ncc(N5CCC6CCCCC6C5)cn4)c3)n2)cn1 (mixture of isomers)
> 7.00

Requested field: pIC50. Item: "CCn1cnc(-c2cccc(Cc3nn(-c4ccc(F)c(F)c4)ccc3=O)c2)n1"
> 7.00

Requested field: pIC50. Item: CC(c1cccc(-c2ncc(OC3CCOCC3)cn2)c1)c1nn(-c2cnn(C)c2)ccc1=O (single isomer, unassigned) [Example 211]
> 7.00

Requested field: pIC50. Item: "CCOc1cnc(-c2cccc(Cc3nn(-c4cnn(C5CCNCC5)c4)ccc3=O)c2)nc1"
> 7.00

Requested field: pIC50. Item: "Cn1cc(-n2ccc(=O)c(Cc3cccc(-c4ncc(CN5CCOCC5)cn4)c3)n2)cn1"
> 7.00

Requested field: pIC50. Item: "CCn1cc(-n2ccc(=O)c(Cc3cccc(-c4ncc(OCCN5CCOCC5)cn4)c3)n2)cn1"
> 7.00

Requested field: pIC50. Item: CCn1cc(-n2ccc(=O)c(C(C)c3cccc(-c4ncc(OCCO)cn4)c3)n2)cn1 (single isomer, unassigned)
> 7.00

Requested field: pIC50. Item: "Cn1cc(-n2ccc(=O)c(Cc3cccc(-c4ncc(OCC(=O)OC(C)(C)C)cn4)c3)n2)cn1"
> 7.00

* * *

List of pIC50 values.
# ASSAYED_SYSTEM: c-Met kinase (recombinant c-Met) (Homo sapiens)
# Construct: 0.27 nM recombinant c-Met
# METHOD_DESCRIPTION: In vitro kinase assay I (homogeneous time-resolved fluorescence tyrosine kinase assay)
pIC50: −log10 of the molar value.

| MOLECULE | ASSAYED_SYSTEM | pIC50 |
| --- | --- | --- |
| CCn1cc(-n2ccc(=O)c(C(C)c3cccc(-c4ncc(OCc5noc(C)n5)cn4)c3)n2)cn1 (single isomer, unassigned) [Example 302] | c-Met kinase (recombinant c-Met) (Homo sapiens) | > 7.00 |
| COC(C)(C)COc1cnc(-c2cccc(C(C)c3nn(-c4ccc(F)c(F)c4)ccc3=O)c2)nc1 (single isomer, unassigned) [Example 252] | c-Met kinase (recombinant c-Met) (Homo sapiens) | > 7.00 |
| CCn1cc(-n2ccc(=O)c(C(C)c3cccc(-c4ncc(O)cn4)c3)n2)cn1 (single isomer, unassigned) [Example 258] | c-Met kinase (recombinant c-Met) (Homo sapiens) | > 7.00 |
| Cn1cc(-n2ccc(=O)c(Cc3cccc(-c4ncn(CC5CCOC5)n4)c3)n2)cn1 (racemic) [Example 79] | c-Met kinase (recombinant c-Met) (Homo sapiens) | > 7.00 |
| Cn1cc(-n2ccc(=O)c(Cc3cccc(NC(=O)OCCN4CCC(F)(F)C4)c3)n2)cn1 [Example 524] | c-Met kinase (recombinant c-Met) (Homo sapiens) | > 7.00 |

Requested field: pIC50. Item: Cn1cc(-n2ccc(=O)c(Cc3cccc(-c4ncc(OCC5(O)CCOCC5)cn4)c3)n2)cn1 [Example 365]
> 7.00

Requested field: pIC50. Item: Cn1cc(-n2ccc(=O)c(Cc3cccc(-c4ncc(O[C@H]5CC[C@@H](O)CC5)cn4)c3)n2)cn1 [Example 748]
> 7.00

Requested field: pIC50. Item: Cn1cc(-c2cnc(-c3cccc(Cc4nn(-c5cc(F)cc(C#N)c5)ccc4=O)c3)nc2)cn1 [Example 155]
> 7.00

Hello, the source for this data is patent US20120264735A1, in case you need it.
